- measurement-notes: Malate dehydrogenase activity (natural substrate)
- Type: biochemical
- condition-set: activity measured at 50 mM malate; Table 4
quantity: Max. specific activity, malate (µmol/mg/min)
API: value field is a number in µmol/mg/min; no unit string.

Form field Max. specific activity, malate, entry Ec-MdhR81A D86S: E. coli malate dehydrogenase mutant R81A D86S, SEQ ID No. 170 (protein, listed as Escherichia coli) MKVAVLGAAGGIGQALALLLKTQLPSGSELSLYDIAPVTPGVAVDLSHIPTAVKIKGFSGEDATPALEGADVVLISAGVAAKPGMSRSDLFNVNAGIVKNLVQQVAKTCPKACIGIITNPVNTTVAIAAEVLKKAGVYDKNKLFGVTTLDIIRSNTFVAELKGKQPGEVEVPVIGGHSGVTILPLLSQVPGVSFTEQEVADLTKRIQNAGTEVVEAKAGGGSATLSMGQAAARFGLSLVRALQGEQGVVECAYVEGDGQYARFFSQPLLLGKNGVEERKSIGTLSAFEQNALEGMLDTLKKDIALGEEFVNK : 0.42
